All figures here come from ChEMBL document CHEMBL5724914.

# conditions: human gut metagenome, 24 h, 2 µM; note: call rule not given here
assay-metric: Bacterial Biotransformation

INSERT INTO measurements (compound, assay_value) VALUES
  ('CC(C)(C)NC[C@H](O)COc1ccccc1C1CCCC1.CC(C)(C)NC[C@H](O)COc1ccccc1C1CCCC1.O=S(=O)(O)O [PENBUTOLOL SULFATE]', 'Compound metabolized'),
  ('NC12CC3CC(CC(C3)C1)C2', 'Compound NOT metabolized'),
  ('CCN(CC)CCOC(=O)C(Cc1cccc2ccccc12)CC1CCCO1.O=C(O)C(=O)O (centres undefined) [NAFRONYL OXALATE]', 'Compound metabolized'),
  ('NC(=O)N1c2ccccc2CC(=O)c2ccccc21 [OXCARBAZEPINE]', 'Compound NOT metabolized'),
  ('Fc1ccc([C@@H]2CCNC[C@H]2COc2ccc3c(c2)OCO3)cc1', 'Compound metabolized'),
  ('CCCc1nc2c(C)cc(-c3nc4ccccc4n3C)cc2n1Cc1ccc(-c2ccccc2C(=O)O)cc1', 'Compound metabolized'),
  ('COc1ccccc1OCC(O)CN1CCN(CC(=O)Nc2c(C)cccc2C)CC1 (centres undefined)', 'Compound NOT metabolized'),
  ('COc1cc2nc(N(C)CCCNC(=O)C3CCCO3)nc(N)c2cc1OC (centres undefined)', 'Compound metabolized'),
  ('CC(C)OC(=O)C(C)(C)Oc1ccc(C(=O)c2ccc(Cl)cc2)cc1 [FENOFIBRATE]', 'Compound metabolized');
